Let's look at some compounds and their measured half-life at 10 μM.
- experiment: Hepatocyte stability assay, human
- Assay type: in vitro ADME
- cond: human, hepatocytes, T½
Dear colleague, please return just the value in h, with no unit written.

Some solved entries appear below for comparison.
1. C=C(CC(=O)NC(C)(C)c1ccc(C(F)(F)F)cc1)C(=O)O 6.5
2. C=C(CC(=O)NC1(c2ccc(C(F)(F)F)cc2)CCC1)C(=O)OC1CCN(S(C)(=O)=O)CC1 0.167
3. C=C(CC(=O)N[C@@H](C)c1ccc(C(F)(F)F)cn1)C(=O)OC1CN(S(C)(=O)=O)C1 0.417
4. C=C(CC(=O)N[C@@H](C)c1ccc(C(F)(F)F)cn1)C(=O)OC1CCN(S(C)(=O)=O)CC1 2.3

Turning now to a further compound:
Reported half-life at 10 μM, compound C=C(CC(=O)N[C@@H](C)c1ccc(C(F)(F)F)cc1)C(=O)OC1CCN(C)CC1 : ____
1.08

---

Some compounds, each annotated with its measured half-life at 10 μM.
- experiment: Hepatocyte stability assay, human
- Format: in vitro ADME
- cond: human, hepatocytes, T½
Give the value, in units of h, as a plain number.

structureNotation	uom	endpointValue
C[C@H](NC(=O)C/C(=C/c1ccccc1)C(=O)O)c1ccc(C(F)(F)F)cc1	h	3.73

# next compound below
Look up half-life at 10 μM for this compound: C=C(CC(=O)N[C@@H](C)c1ccc(C(F)(F)F)cc1)C(=O)OC1(C)COC1
0.3

---

- System: NRF2 (nuclear factor erythroid 2-related factor 2)
- experiment: NRF2 +/-GSH activation assay (DiscoverX PathHunter NRF2 translocation kit, U2OS cells)
- Assay type: cell-based
- cond: Homo sapiens, U2OS; +GSH; normalised to dimethyl fumarate high control; read-out: NRF2 activation Emax, +GSH
quantityName: Emax (%)
Kindly answer with a numeric value in %, unit omitted.

Below: 5 molecules and their reported Emax.
1) C=C(CC(=O)N[C@@H](C)c1ccc(C(F)(F)F)cc1)C(=O)OC1CS(=O)(=O)C1 10
2) C=C(CC(=O)N[C@@H](C)c1ccc(C(F)(F)F)cc1)C(=O)OC1CCN(C)CC1 30
3) C=C(CC(=O)NC1(c2ccc(C(F)(F)F)cc2)CCC1)C(=O)O 0
4) C=C(CC(=O)N[C@@H](C)c1ccc(C(F)(F)F)cn1)C(=O)OC1CN(S(C)(=O)=O)C1 11
5) C=C(CC(=O)N[C@@H](C)c1ccc(C(F)(F)F)cn1)C(=O)OCCO 16

For the molecule C=C(CC(=O)N[C@@H](C)c1ccc(C(F)(F)F)cc1)c1nnn[nH]1 , what Emax is on record?
48.5

Item under review: C=C(CC(=O)NC1CCCCCCC1)C(=O)OC1CCN(S(C)(=O)=O)CC1 . Reported Emax?
90

Requested field: Emax. Item: C=C(CC(=O)NC(C)(C)c1ccc(C(F)(F)F)cc1)C(=O)O
0

I would be grateful if you could share the reported Emax for C=C(CC(=O)N[C@@H](C)c1ccc(C(F)(F)F)cc1)C(=O)OC1CCN(S(C)(=O)=O)CC1 .
8

Which measured Emax value corresponds to C=C(CC(=O)NC1(c2ccc(C(F)(F)F)cc2)CCC1)C(=O)OC1CCN(S(C)(=O)=O)CC1 ?
55

---

- System: cryo-preserved hepatocytes
- experiment: Hepatocyte stability assay, human
- Format: in vitro ADME
- cond: human, hepatocytes
quantityName: Clint (μL min^−1 10^−6 cells)
Express your answer in μL min^−1 10^−6 cells, writing the number without its unit.

structureNotation	uom	Clint
CC(C)C/C=C(\CC(=O)N[C@@H](C)c1ccc(C(F)(F)F)cc1)C(=O)O	μL min^−1 10^−6 cells	8

Need Clint of C=C(CC(=O)NC1CCCCCCC1)C(=O)OC1CCN(S(C)(=O)=O)CC1 , thanks.
14

Which Clint value is on record for C=C(CC(=O)N[C@@H](C)c1ccc(C(F)(F)F)cc1)C(=O)OC1CCN(S(C)(=O)=O)CC1 ?
49
